Test system: SK-OV-3 ovarian
Assay: NCI-60 one-dose screen, 48 h (100 = growth as untreated, 0 = no growth, -100 = all killed)
Conditions: 10 µM unless noted
The panel holds about 83,000 compounds, 20% with a hit somewhere; the sample as a whole holds those more often.
Form field: growth (one value per entry).

| INPUT SMILES | growth, % |
| --- | --- |
| CCNCCNc1cc(-c2ccc(Cl)c(Cl)c2)c(C#N)c2nc3ccccc3n12 | -94.1 |
| C=C1C(=O)O[C@H]2[C@H]1CC/C(Cn1cc(-c3cc(C)c(C)cc3C)nn1)=C\CC[C@@]1(C)O[C@@H]21 | 76.2 |
| CCCCCCCC(=O)SCC/C=C/[C@@H]1CC(=O)NCc2cc(ccn2)C2=N[C@@](C)(CS2)C(=O)N[C@@H](C(C)C)C(=O)O1 | -22.6 |
| COCCN1CCN(Cc2ccc(-c3n[nH]c4c3C(=O)c3c(NC(=O)NN5CCOCC5)cccc3-4)cc2)CC1 | -7.89 |
| CC(C)(C)c1nc(-c2cccc(NS(=O)(=O)c3c(F)cccc3F)c2F)c(-c2ccnc(N)n2)s1 | 71.9 |
| C[C@@H](C[C@H](CCO)c1cc(C(F)(F)F)cc(C(F)(F)F)c1)c1ccc2ccccc2c1 | 98.3 |
| COc1cnc2c(c1)C(=O)c1c-2n(CCCN2CCC(O)CC2)c(=O)c2cc(Cl)ccc12 | 27.8 |
| COC(=O)[C@@H](C)CNS(=O)(=O)N(c1cc(C(F)(F)F)cc(C(F)(F)F)c1)C1CCN(Cc2ccc(F)cc2)CC1 | 76.2 |
